Tested on: SNB-75 CNS
Measurement protocol: NCI-60 one-dose screen, 48 h (100 = growth as untreated, 0 = no growth, -100 = all killed)
Cond: 10 µM unless noted
The panel holds about 83,000 compounds, 20% with a hit somewhere; the sample as a whole holds those more often.
Measured property: growth (%)
Provide only the numeric value, understood in %.

Examples with answers:
CC(C)(C)c1cc(C=Nc2cccc(C(F)(F)F)c2)c(O)c(C(C)(C)C)c1 : 83.6
COc1ccc2c(c1)c(-c1ccc(-c3cn(C)c4ccc(OC)cc34)[nH]1)cn2C : 17.9
Cn1cc(-c2nn3cc(-c4ccccc4)nc3s2)c2ccccc21 : 39.8

Can you look up the measured growth of O=C1CC2C=CCN2C=C1NC(=O)C1CCCCC1 (stereo not given) for me?
87.3

Any idea what growth was measured for N#Cc1c(NC(=O)c2cccs2)[n+]([O-])c2ccc(Cl)cc2[n+]1[O-] ?
91.7

Consider the compound shown here: COc1cc2cc(NCc3ccc(OC(F)F)cc3)nc(C)c2cc1OC What is its recorded growth?
88.1

If you can, please state the reported growth value of COc1ccc(/C(C)=C(\c2ccc(Cl)cc2)c2ccc(OCCN3CCCC3)cc2)cc1 .
91.4

Data request, read-out growth, for COC(=O)/C(CCC=C(C)C)=C1\[C@@H](OC(C)=O)C[C@@]2(C)[C@H]1CC(=O)[C@H]1[C@@]3(C)CCC(N4CCCC4)[C@@H](C)[C@@H]3CC[C@@]12C (stereo not given in full)
99.2

May I ask what growth has been recorded for O=C1NC(=Nc2ccc(O)cc2)S/C1=C\c1cccs1 ?
-12.7

Given the compound Cc1[nH]c(C(=O)Nc2ccc(C(N)=O)cc2NC(C)C)c(Cl)c1Cl , what is its reported growth?
69

* * *

Test system: ACHN renal
Measurement protocol: NCI-60 one-dose screen, 48 h (100 = growth as untreated, 0 = no growth, -100 = all killed)
Cond: 10 µM unless noted
About 83,000 compounds went through this panel and 20% of them were active in at least one assay; those are over-represented in the sample as a whole.
The entries below come with measured growth values attached.
Please respond with the number in % and leave the unit unwritten.

Fc1ccc(CNc2c3ccccc3nc3ccccc23)cc1 : 12.5
CCOC(=O)c1c2c(n3c1NCC3)-c1ccccc1C2=O : 97.3
Nc1c(C(=O)Nc2cccc3ncccc23)sc2nc3c(cc12)C(=O)CCC3 : 52

What value of measured growth is listed for Cc1ccc(-c2csc(NC(=O)N3CCN(c4cc5c(cc4F)c(=O)c(C(=O)O)cn5C4CC4)CC3)n2)cc1 ?
5.91

# get_value(readout='growth', item= CCNCc1ccc(O)c2ncccc12 )
22.7

Can you look up the measured growth of CCOC(=O)c1c(C)nn(CC(O)c2ccccc2)c1NC(=O)Nc1cccc(F)c1 (stereo not drawn) for me?
89.7

Given the entry Cc1ccccc1OCC(O)COc1ccccc1C , report its measured growth.
84.4

Which growth value belongs to COc1ccc(NC(=O)c2sc3nc(C)c(C(O)c4ccccc4)cc3c2N)cc1 (stereo not drawn) ?
45.2

Look at this compound and give its reported growth. Cn1cc(C(=O)c2nc(-c3c[nH]c4ccc(Br)cc34)no2)c2cc(Br)ccc21
80.9

What measured growth goes with O=C(O)c1cn(C2CC2)c2cc(N3CCN(C(=O)N/N=C/c4ccccc4)CC3)c(F)cc2c1=O ?
101

Which growth value belongs to Cc1ccc(/C=C(\C#N)C(=O)Nc2ncc(Cc3cc(Cl)ccc3Cl)s2)o1 ?
45.4

Could you tell me which growth is on file for Nc1c(C(=O)Nc2ccccn2)sc2nc3c(cc12)C(O)CCC3 (stereo not drawn) ?
46.2

Tell me the measured growth of O=c1nc(Nc2nc3ccccc3s2)[nH]c(=O)c2ccccc12 , please.
89.8

I am curious: what growth value has been reported for O=C(O)C1CN(c2cccc(Cl)c2)N(c2cccc(Cl)c2)C1=O (stereo not drawn) ?
95.6

Item C=C1C(=O)O[C@H]2[C@H]1CC/C(COC(=O)NCc1ccc(Cn3c(=O)sn(-c4ccc(OC)cc4)c3=O)cc1)=C\CC[C@@]1(C)O[C@@H]21 has what recorded growth?
-8.56

growth for CC1O[C@@H]2C[C@@](O)([C@H]1O)n1c3ccccc3c3c4c(c5c6ccccc6n2c5c31)C(=O)NC4=O (stereo partly drawn) ?
19.3

What value of growth has been reported for the following compound? CCN(CC)c1ccc(/C=N\NC(=O)c2cccc(Nc3ccnc(C(F)(F)F)c3)c2)c(O)c1
12.1

I am curious: what growth value has been reported for COc1ccc(C(O)c2cc3c(N)c(C(=O)Nc4cccc(Cl)c4)sc3nc2C)cc1 (stereo not drawn) ?
30.3
